# measurement target: 5-HT1A serotonin receptor (Rattus norvegicus)
# Sequence (P19327 1-422): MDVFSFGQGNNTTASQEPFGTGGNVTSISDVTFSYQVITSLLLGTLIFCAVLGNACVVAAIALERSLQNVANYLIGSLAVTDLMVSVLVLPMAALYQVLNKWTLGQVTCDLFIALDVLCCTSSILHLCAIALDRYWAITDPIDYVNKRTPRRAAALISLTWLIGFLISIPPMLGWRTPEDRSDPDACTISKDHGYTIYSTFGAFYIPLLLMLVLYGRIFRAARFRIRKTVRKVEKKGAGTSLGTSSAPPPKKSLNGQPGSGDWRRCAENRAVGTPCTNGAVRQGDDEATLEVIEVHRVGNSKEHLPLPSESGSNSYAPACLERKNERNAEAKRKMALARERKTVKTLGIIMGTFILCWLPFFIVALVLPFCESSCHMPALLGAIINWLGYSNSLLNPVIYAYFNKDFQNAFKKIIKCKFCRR
reported endpoint: pIC50
Scale: negative log10 of molar concentration, which is what pIC50 denotes.

Ask: Reported pIC50, compound O=C(C(CCN1CCN(c2cccccc2=O)CC1)c1ccccc1)N1CCCCCC1 (stereo not shown) : ____
Result: 7.73
